Assign pKd to each entry below.
- Tgt: T1, Rat serum albumin (rat, UniProt P02770 25-608)
- T1 construct: coupled to CM5 BIAcore chip; also called rat SA; RSA
- Assay text: SPR, BIAcore 3000, serum albumin coupled to CM5 chip;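 also: Cross-reactivity of anti-serum albumin domain antibodies measured against human, cynomolgus monkey, rat and mouse serum albumin, binding kinetics giving Kd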
// field semantics: pKd = negative decimal log of concentration (mol/L)

Value of measured pKd for the entry DOM7r-36-102 (VHH, VH immunoglobulin single variable domain (dAb, AlbudAb), not a camelid VHH; tested with a myc tag; not shown: myc tag) VHH: EVQLLESGGGLVQPGGSLRLSCAASGFTFNHYTMGWVRQAPGKGREWVSLIHPSGTVTYYADSVKGRFTISRDNSKNTLYLQMNSLRAEDTAVYYCAKWFYRNFDYWGQGTLVTVSS : 7.00

For this binder ( DOM7r-36-106 (VHH, VH immunoglobulin single variable domain (dAb, AlbudAb), not a camelid VHH; tested with a myc tag; not shown: myc tag) VHH: EVQLLESGGGLVQPGGSLRLSCAASGFTFNHYTMGWVRQAPGKGREWVSLIHPSGTVTYYADSVKGRFTISRDNSKNTLYLQMNSLRAEDTAVYYCAKFRGRGFDYWGQGTLVTVSS ), measured pKd is 7.12

Values from patent US20130266567A1
